# System: AN3CA (endometrial)
# MEASUREMENT DESCRIPTION: cells
# Parameters: MTT reduction cytotoxicity assay in human tumour cell lines
# TEST CONTEXT: Homo sapiens, AN3-CA; 48 h, MTT
RECORDED ENDPOINT: IC50 (µM)

* CCC(C)N1c2ccccc2C(=O)N(C)c2cnc(Nc3ccc(C(=O)N4CCC(N5CCN(C)CC5)CC4)cc3OC)nc21 (stereo not shown) | 3.3

----------
# Test system: Hela (cervical)
# MEASUREMENT DESCRIPTION: cells
# Set-up: MTT reduction cytotoxicity assay in human tumour cell lines
# TEST CONTEXT: Homo sapiens, HeLa; 48 h, MTT
RECORDED ENDPOINT: IC50 (µM)

- CCC(C)N1c2ccccc2C(=O)N(C)c2cnc(Nc3ccc(C(=O)N4CCC(N5CCN(C)CC5)CC4)cc3OC)nc21 (stereo not shown): 2.9
